# Measured on: Recombinant EBOV GP without transmembrane domain (Zaire ebolavirus, strain of GP not …, UniProt Q05320)
# Sequence (Q05320 33-501, chain 1 of 2): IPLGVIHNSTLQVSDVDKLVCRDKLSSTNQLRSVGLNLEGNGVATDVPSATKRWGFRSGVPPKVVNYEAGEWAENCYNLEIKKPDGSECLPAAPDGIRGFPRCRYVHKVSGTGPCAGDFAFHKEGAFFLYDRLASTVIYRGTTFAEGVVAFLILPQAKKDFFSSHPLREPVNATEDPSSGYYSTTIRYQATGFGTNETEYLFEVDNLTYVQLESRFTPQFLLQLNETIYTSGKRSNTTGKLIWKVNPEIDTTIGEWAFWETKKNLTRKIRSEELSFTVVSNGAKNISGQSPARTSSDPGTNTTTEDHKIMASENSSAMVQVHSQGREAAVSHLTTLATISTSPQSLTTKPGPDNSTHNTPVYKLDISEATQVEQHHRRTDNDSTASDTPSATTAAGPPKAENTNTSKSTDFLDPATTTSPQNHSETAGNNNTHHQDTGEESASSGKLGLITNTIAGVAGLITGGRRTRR
# Sequence (O11457 502-650, chain 2 of 2, further chain): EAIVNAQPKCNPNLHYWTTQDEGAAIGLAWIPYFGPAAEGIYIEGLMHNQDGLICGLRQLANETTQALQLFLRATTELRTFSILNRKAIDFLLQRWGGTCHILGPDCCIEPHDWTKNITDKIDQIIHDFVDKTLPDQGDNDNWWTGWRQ

>  <Binder>
R3G10 (VHH) VHH: EVQLQASGGGSVQAGGSLQLSCAAPGRPVRTYTMGWFRQAPGKEREFVAANNWRGTRYAGSVRGRFSTSRDNSKNTVYLQMNSLKPEDTAVYYCACAVTADLLLSGNYFRGDDYDYWGQGTQVTVS

>  <binding result>
binds

$$$$
>  <Binder>
R3H8 (VHH) VHH: EVQLQASGGGLVQAGGSLQLSCAAPGHPVRTYTMGWFRQAPGKEREFVAANNWRGTRYAGSVRGRFSISRDNSKNTVYLQMNSLKPEDTAVYYCACAVTADLLLSGNYFRGDDYDYWGQGTQVTVS

>  <binding result>
binds

$$$$
